Measured protein stability index of individual entries
# Experiment description: protein stability index of a GFP-peptide fusion (GPS, HEK-293T) (PSI 1-6); higher = more stable;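 also: 24-mer peptide tiles fused after GFP, lentivirally expressed, FACS-sorted into six equal bins by GFP/DsRed ratio, decoded by Illumina sequencing, PSI is the read-weighted mean bin number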
# Test conditions: treatment: DMSO; c terminus: a fixed tail appended
Please reply with the value in numeric form only.

Consider the following illustrative entries.
# Entry sequence, Observable, Reported value
rows = [
    ("PVVKKKGVKRKADTTTPTTSAITA [BRD3]", "protein stability index", 5.03),
    ("TLLLELEQDSGVQVEGLTVQYLGQ [ADAMTS4]", "protein stability index", 2.87),
]

The value of protein stability index measured for the sequence DSTGYMEVSLDSLDLRVKGILSSQ [EHMT1] turned out to be 3.08

The value of protein stability index measured for the sequence FVALKSVRVPNGGGGGGGLPISTV [CDK4] turned out to be 2.52

The value of protein stability index measured for the sequence TQHNFQEVMESEEFMLLPANQLID [KLHL20] turned out to be 4.43

The value of protein stability index measured for the sequence MNARGLGSELKDSIPVTELSASGP [POMP] turned out to be 4.78

The value of protein stability index measured for the sequence GKRTPRGRRGWKKFYAVLKGTILY [PSD2] turned out to be 2.97

The value of protein stability index measured for the sequence KADENNGFGSKNTAFCTHVFPETA [TBX5] turned out to be 4.01

The value of protein stability index measured for the sequence PFAFVEFEDPRDAEDAVYGRDGYD [SRSF1] turned out to be 4.76

The value of protein stability index measured for the sequence APGLYNHLPWQYHAGQGGLFYSAE [CCDC3] turned out to be 2.69

The value of protein stability index measured for the sequence ICLEMFTKPVVILPCQHNLCRKCA [TRIM63] turned out to be 2.2

The value of protein stability index measured for the sequence FMSPCDKFRAKGRKPCKLMLQVVK [MCOLN1] turned out to be 2.26

====

# Experiment description: protein stability index of a GFP-peptide fusion (GPS, HEK-293T) (PSI 1-6); higher = more stable
# Test conditions: treatment: DMSO; c terminus: a fixed tail appended
# label = bin(measured protein stability index), where bins are c1: < 3; c2: ≥ 3 and < 4; c3: ≥ 4

# Entry sequence, Assigned category
measured = [
    ("DKRHVEQKIQFKRETASLKLLPHQ [PDZK1]", "c2"),
    ("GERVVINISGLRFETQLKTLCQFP [KCNA3]", "c1"),
    ("SERDSEAAKQNHVTADDFVQTSVI [EHMT1]", "c3"),
]

Query: Each sequence maps to one class by protein stability index. Which class for VPVQPLLPESLARSLLPSTEYQKQ [FBF1] ?
Response: c3

Query: Each sequence maps to one class by protein stability index. Which class for RDPSLRPARTVLVGSLSWLRKQLQ ?
Response: c1

Query: Each sequence maps to one class by protein stability index. Which class for WGHCEIRMRYLNGLDPEPLPLMDL [SPSB1] ?
Response: c1

====

# Experiment description: protein stability index of a GFP-peptide fusion (GPS, HEK-293T) (PSI 1-6); higher = more stable
# Test conditions: treatment: MLN4924 1 uM, 8 h; c terminus: a fixed tail appended
Decision: protein stability index compared against 3; not below it gives 1.0, below it gives 0.0.

Example results:
# Entry sequence, Assigned category
rows = [
    ("YLIMLPFRFTYYTILDIFRFALRF [FAF2]", 1.0),
    ("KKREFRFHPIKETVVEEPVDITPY [INTS3]", 1.0),
    ("WEAKQEKIKSEEIEITFSYWDGSG [FAM50A]", 0.0),
    ("MESKRLRLLQEEDRRKKIARMGFN [DCAF4]", 1.0),
    ("RSSFANQGEICLCTSRIFVQKSIY [ALDH8A1]", 0.0),
    ("TAPRQEKHERTHEIIPINVNNNYE [SPRY1]", 1.0),
    ("TKPKTTAIQGISEKEKAEIEAKEA [DLC1]", 1.0),
    ("DRNVVTIFSAPNYCYRCGNQAAIM [PPP2CA]", 0.0),
]

Query: Could you please find out whether LSAGSPPVPPGWNPNSSSGKGSGG [DLX1] has protein stability index that meets 3 or exceeds it?
Response: 1.0

Query: Could you please find out whether LLKIHEVSTVSHADADCFVCVFLS [CASP6] has protein stability index that meets 3 or exceeds it?
Response: 0.0

Query: Could you please find out whether GCILFEYYRGFTLFQTHENREHLV [CLK3] has protein stability index that meets 3 or exceeds it?
Response: 0.0

====

# Experiment description: protein stability index of a GFP-peptide fusion (GPS, HEK-293T) (PSI 1-6); higher = more stable
# Test conditions: treatment: DMSO; c terminus: a fixed tail appended
Measured protein stability index of individual entries
Please reply with the value in numeric form only.

# Entry sequence, Reported value
records = [
    ("AREGLAAPPRRLRSRKVSCPLTRS [FCHO1]", 3.93),
    ("AAGRVCRPPGPAGTEQSRGLGHGS [CPOX]", 4.44),
    ("PSGNNGSVNWRTGSFHGPGHISLR [DLC1]", 3.09),
    ("EKEFMKGNQLISNNIKFKKSSILT [CLCN6]", 3.46),
    ("FYRYKMPRLIAKVEGKGNGIKTVI [EIF5]", 2.28),
]

The value of protein stability index measured for the sequence YQAFRECTLETTVHASGWNKILVP [BCL2L13] turned out to be 1.93

The value of protein stability index measured for the sequence SPLGALQHGFFRRTADEATNTGPA [DYRK1B] turned out to be 4.38

====

# Experiment description: protein stability index of a GFP-peptide fusion (GPS, HEK-293T) (PSI 1-6); higher = more stable
# Test conditions: treatment: DMSO; c terminus: a fixed tail appended
# label = bin(measured protein stability index), where bins are I (below 3), II (3 to below 4), III (4 or more)

# Entry sequence, Assigned category
rows = [
    ("QPPAITQVHRQGERRRELVRSQTL [SMTNL2]", "III"),
    ("LSSYISINSDTGVLYALRSFDYEQ [PCDHGA10]", "I"),
    ("AKINIVYQELNYRSVEEAPVYSVP [SCNN1D]", "I"),
    ("AEGHKASFCLEDTECEGDIQKNYE [LOXL2]", "III"),
    ("SVLKRPERSQEESPPGSTKRRKSM [CDC25A]", "III"),
]

Query: Each sequence maps to one class by protein stability index. Which class for ARYIDTHNRVSKEDEDIYKLRHDL [PLK2] ?
Response: II

Query: Each sequence maps to one class by protein stability index. Which class for PGRRGDPDTAPPSERPLEDLRLRL [RTN2] ?
Response: III

Query: Each sequence maps to one class by protein stability index. Which class for TWDGRPLTMAATFDDCLYALCVVD [GFOD1] ?
Response: I

Query: Each sequence maps to one class by protein stability index. Which class for LSPEVLRKEAYGKPVDIWACGVIL [CAMK2B] ?
Response: I

Query: Each sequence maps to one class by protein stability index. Which class for PPPLGPVVPVLVFPPDLVFRADQR [MOSPD3] ?
Response: II

Query: Each sequence maps to one class by protein stability index. Which class for STIVVMLTKLREMGREKCHQYWPA [PTPRD] ?
Response: I

Query: Each sequence maps to one class by protein stability index. Which class for VGRTVLDMLIREVVEKRLCMYEHG [RSPH3] ?
Response: I

Query: Each sequence maps to one class by protein stability index. Which class for AAAHWYGGAEMRTQHWPIRLDGQQ [MYORG] ?
Response: I

====

# Experiment description: protein stability index of a GFP-peptide fusion (GPS, HEK-293T) (PSI 1-6); higher = more stable
# Test conditions: treatment: DMSO; c terminus: a fixed tail appended
Measured protein stability index of individual entries
Please reply with the value in numeric form only.

# Entry sequence, Observable, Reported value
rows = [
    ("MFLHPVDYGRKAEELLWRKVYYEV [SMG5]", "protein stability index", 2.45),
]

Turning now to a further record.
The value of protein stability index measured for the sequence FGCFFYVYYIFERLCAPLFRNIKQ [SOAT1] turned out to be 2.37

====

# Experiment description: protein stability index of a GFP-peptide fusion (GPS, HEK-293T) (PSI 1-6); higher = more stable
# Test conditions: treatment: MLN4924 1 uM, 8 h; c terminus: a fixed tail appended
Decision: protein stability index compared against 3; not below it gives yes (1), below it gives no (0).

# Entry sequence, Assigned category
measured = [
    ("HFCVDDTKLLSGSYDCTVKLWDPV [WDR88]", "no (0)"),
    ("TGSTYNLSSGMAVAGMPTAYDLSS [CARM1]", "yes (1)"),
    ("IFRCFCPVFLHSQMLWELVLLGEP [DENND6A]", "no (0)"),
    ("DVKCYQGTDIVRGCDPLVKPVGRQ [ADAMTSL2]", "yes (1)"),
    ("AGSTDDRIVVPQRGRSTRVPVASV [SPNS1]", "yes (1)"),
]

Query: Could you please find out whether SSCSSTSGGGGGGGGGGGGGKSGG [CCDC6] has protein stability index that meets 3 or exceeds it?
Response: yes (1)

Query: Could you please find out whether EFPQFEPQRYPACAQMLPPNLSPH [TRAF3IP2] has protein stability index that meets 3 or exceeds it?
Response: yes (1)

Query: Could you please find out whether IRSPRPASVATWAIFVHRVGQPSI [CTBP1-DT] has protein stability index that meets 3 or exceeds it?
Response: no (0)
